Assay type: in vivo, rat
Conditions: male, SD, rat, plasma, po, 25 mg/kg
PROPERTY: Cmax (ng/mL)
Numbers only, in ng/mL.

The molecule listed as `O=C(/C=C/c1ccc(O)c(O)c1)O[C@@H]1C[C@](O)(C(=O)O)C[C@@H](O)[C@H]1O` has a reported Cmax of 284

###

Assay type: in vivo, rat
Conditions: male, SD, rat, plasma, po, 10 ml/kg
PROPERTY: AUC(0-t) (µg·h/mL)
Give bare numbers, in µg·h/mL.

AUC(0-t) recorded for this molecule, O=C(/C=C/c1ccc(O)c(O)c1)O[C@@H]1C[C@](O)(C(=O)O)C[C@@H](O)[C@H]1O [Chlorogenic acid] , is 0.541
